Each record here notes measured % inhibition of Bet v 1-IgE binding.
biological target: IgE of patient serum 6; assay: ELISA inhibition, serum 6 pre-incubated with 1.25 µg/ml inhibitor; competitor: wt Bet v 1 adsorbed on wells
Entry rule: numbers only, all in %.

Some binders with recorded % inhibition of Bet v 1-IgE binding:
mutant Bet v 1-Mal d 1 hybrid molecule (SEQ ID NO: 4) (protein) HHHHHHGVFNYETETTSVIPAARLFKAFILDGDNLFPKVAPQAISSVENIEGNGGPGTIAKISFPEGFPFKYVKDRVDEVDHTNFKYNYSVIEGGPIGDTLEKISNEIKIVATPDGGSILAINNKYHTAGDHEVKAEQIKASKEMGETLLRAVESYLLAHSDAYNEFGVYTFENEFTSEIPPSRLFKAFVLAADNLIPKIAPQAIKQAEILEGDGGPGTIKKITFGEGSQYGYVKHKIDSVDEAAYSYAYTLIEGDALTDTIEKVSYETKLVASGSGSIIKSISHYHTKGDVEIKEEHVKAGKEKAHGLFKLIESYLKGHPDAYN
0
mixture of the single wt allergens (wt Bet v 1 and wt Mal d 1) (protein) chain 1: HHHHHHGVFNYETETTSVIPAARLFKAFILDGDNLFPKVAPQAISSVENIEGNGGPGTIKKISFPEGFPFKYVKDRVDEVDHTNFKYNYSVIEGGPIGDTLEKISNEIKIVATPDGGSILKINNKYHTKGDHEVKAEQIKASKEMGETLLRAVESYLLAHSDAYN chain 2: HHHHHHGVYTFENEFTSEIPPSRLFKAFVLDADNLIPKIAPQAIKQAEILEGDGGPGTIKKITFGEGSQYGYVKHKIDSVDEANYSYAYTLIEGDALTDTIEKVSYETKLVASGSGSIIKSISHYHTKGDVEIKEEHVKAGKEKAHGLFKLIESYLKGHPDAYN
65.2
mixture of the two mutagenised allergens (mut Bet v 1-SEQ ID NO:6 and mut Mal d 1-SEQ ID NO:2) (protein) chain 1: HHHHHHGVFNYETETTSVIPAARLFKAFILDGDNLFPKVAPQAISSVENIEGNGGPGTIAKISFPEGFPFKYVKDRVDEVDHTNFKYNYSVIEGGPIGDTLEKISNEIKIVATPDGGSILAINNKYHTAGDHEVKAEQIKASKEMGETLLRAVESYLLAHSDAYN chain 2: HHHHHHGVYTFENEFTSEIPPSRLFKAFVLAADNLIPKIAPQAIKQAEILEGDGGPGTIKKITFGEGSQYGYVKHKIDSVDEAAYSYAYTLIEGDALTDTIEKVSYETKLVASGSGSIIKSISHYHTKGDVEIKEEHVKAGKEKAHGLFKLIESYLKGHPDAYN
41.8

[ask] What measured % inhibition of Bet v 1-IgE binding goes with wild-type Bet v 1-Mal d 1 hybrid molecule (SEQ ID NO: 3) (protein) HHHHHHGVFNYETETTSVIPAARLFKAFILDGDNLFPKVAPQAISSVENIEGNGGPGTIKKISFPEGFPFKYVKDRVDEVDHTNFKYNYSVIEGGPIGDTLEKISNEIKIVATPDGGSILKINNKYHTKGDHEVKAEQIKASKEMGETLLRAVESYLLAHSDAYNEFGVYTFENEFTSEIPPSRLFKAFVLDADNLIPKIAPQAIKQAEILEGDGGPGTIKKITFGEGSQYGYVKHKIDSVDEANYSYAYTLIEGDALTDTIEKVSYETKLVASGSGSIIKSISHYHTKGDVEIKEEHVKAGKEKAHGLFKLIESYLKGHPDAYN ?
[reply] 56.6
